condition: in isopropanol, 279.87 K

structure_smiles_string | solubility (mole fraction)
O=C(O)c1cccc(C(=O)O)c1 | 0.00226

---

condition: in n-butanol, 312.66 K
experimental_endpoint: solubility (mole fraction)

structure_smiles_string | endpoint_result
O=C(O)c1cccc(C(=O)O)c1 | 0.00474

The reported measurements were obtained from BigSolDB 2.1.
